- Tested on: Staphylococcus aureus #193
- test-description: MIC, serial two-fold dilution method (aerobic)
- Format: cell-based
- experimental-conditions: Staphylococcus aureus #193; Mueller-Hinton agar; inoculum 10^4; read-out: minimum inhibitory concentration (MIC)
property-name: MIC (µg/mL)
Record the value in µg/mL, omitting the unit from your answer.

[Q] Dear colleague, please send me the reported MIC for NC[C@H]1O[C@H](O[C@H]2[C@H](O)[C@@H](O[C@H]3O[C@H](CO)[C@@H](O)[C@H](N)[C@H]3O)[C@H](N)C[C@@H]2N)[C@H](O)[C@@H](O)[C@@H]1O [Kanamycin] when you can.
[A] 0.8

[Q] Please list MIC recorded for the compound CC1(C)S[C@@H]2[C@H](NC(=O)[C@H](N)c3ccccc3)C(=O)N2[C@H]1C(=O)O [Ampicillin]
[A] 1.6

[Q] Output measured MIC for this item: O=C(N[C@H](CO)[C@H](O)c1ccc([N+](=O)[O-])cc1)C(Cl)Cl [Chloramphenicol]
[A] 3.1

[Q] Output MIC of CC[C@H]1OC(=O)[C@H](C)[C@@H](O[C@H]2C[C@@](C)(OC)[C@@H](O)[C@H](C)O2)[C@H](C)[C@@H](O[C@@H]2O[C@H](C)C[C@H](N(C)C)[C@H]2O)[C@](C)(O)C[C@@H](C)C(=O)[C@H](C)[C@@H](O)[C@]1(C)O [Erythromycin]
[A] 0.4
